experimental.target: EPHB2 (UniProt P29323)
Sequence (P29323 whole entry, looked up): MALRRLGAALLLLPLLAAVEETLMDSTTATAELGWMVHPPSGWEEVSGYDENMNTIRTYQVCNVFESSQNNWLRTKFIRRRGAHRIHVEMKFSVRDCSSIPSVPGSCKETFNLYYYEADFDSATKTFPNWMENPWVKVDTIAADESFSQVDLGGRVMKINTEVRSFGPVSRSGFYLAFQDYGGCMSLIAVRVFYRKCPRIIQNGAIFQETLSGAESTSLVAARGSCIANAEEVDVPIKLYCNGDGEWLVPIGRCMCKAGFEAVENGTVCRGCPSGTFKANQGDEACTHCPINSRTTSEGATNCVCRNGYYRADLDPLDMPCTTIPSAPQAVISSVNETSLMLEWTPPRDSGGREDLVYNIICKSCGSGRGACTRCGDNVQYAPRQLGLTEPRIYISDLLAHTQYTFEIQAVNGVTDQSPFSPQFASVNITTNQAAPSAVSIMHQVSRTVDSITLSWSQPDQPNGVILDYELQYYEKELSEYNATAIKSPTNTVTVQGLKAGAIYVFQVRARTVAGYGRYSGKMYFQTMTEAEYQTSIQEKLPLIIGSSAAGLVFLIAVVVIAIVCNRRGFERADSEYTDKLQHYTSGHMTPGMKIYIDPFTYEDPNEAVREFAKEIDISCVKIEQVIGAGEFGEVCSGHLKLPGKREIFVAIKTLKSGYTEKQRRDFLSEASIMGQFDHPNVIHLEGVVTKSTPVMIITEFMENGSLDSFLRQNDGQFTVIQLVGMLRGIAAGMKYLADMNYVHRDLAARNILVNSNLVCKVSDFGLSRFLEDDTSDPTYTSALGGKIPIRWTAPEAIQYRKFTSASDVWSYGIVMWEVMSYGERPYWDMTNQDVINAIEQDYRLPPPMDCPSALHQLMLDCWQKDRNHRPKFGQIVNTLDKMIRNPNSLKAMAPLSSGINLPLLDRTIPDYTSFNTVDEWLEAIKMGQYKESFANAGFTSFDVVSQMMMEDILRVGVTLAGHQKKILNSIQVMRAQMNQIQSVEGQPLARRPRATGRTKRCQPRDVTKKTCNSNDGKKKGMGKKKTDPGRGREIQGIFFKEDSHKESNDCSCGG
measurement.notes: phosphorylation enrichment, bacterial display (enrichment ratio); higher = better substrate or ligand; peptides without Tyr show the background
Tag: MET if measured phosphorylation enrichment is not below 0.5, NOT MET if it is.

The examples below pair each entry with its known result.
[[record]]
entry_sequence = "FDKEFYSVHNK [MET_Y1235_YF]"
answer_label = "MET"

[[record]]
entry_sequence = "KGEPQYSSHSS [SIPA1L3_Y1265]"
answer_label = "NOT MET"


// next entry
Task item: Decide: is the reported value of phosphorylation enrichment for PPKFFDTRKLL [CYBB_Y41_Y41D] equal to or greater than 0.5?
Reply: MET

====

experimental.target: Grb2 SH2 (UniProt P62993)
Sequence (P62993 whole entry, looked up): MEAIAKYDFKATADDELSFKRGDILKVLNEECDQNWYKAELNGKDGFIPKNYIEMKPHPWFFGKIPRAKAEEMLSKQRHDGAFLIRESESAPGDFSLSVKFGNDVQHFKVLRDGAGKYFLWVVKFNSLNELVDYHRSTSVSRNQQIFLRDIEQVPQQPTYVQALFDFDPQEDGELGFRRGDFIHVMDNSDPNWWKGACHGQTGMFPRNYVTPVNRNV
measurement.notes: SH2 binding enrichment of the phosphorylated peptide, bacterial display (enrichment ratio); higher = better substrate or ligand; peptides without Tyr show the background
experimental.readout: SH2 binding enrichment
Lab note: write the figure by itself, no unit.

[[record]]
entry_sequence = "GRQGIYTENER [GPR143_Y231]"
readout_number = 0.966

[[record]]
entry_sequence = "TVQVAYFTVMM [SPATA17_Y83_M86V_YF]"
readout_number = 0.775

[[record]]
entry_sequence = "TDVSLYPSGGT [TENM4_Y399]"
readout_number = 0.577

[[record]]
entry_sequence = "KGSEGYLAATY [NF1_Y2503]"
readout_number = 0.719

[[record]]
entry_sequence = "VDASFCGGRGV [ANTXR2_Y381_Y381C_YF]"
readout_number = 0.728


Task item: # lookup: SH2 binding enrichment of PGAPAYRVLME [MYO5A_Y1245]
Reply: 0.728

Task item: # lookup: SH2 binding enrichment of FSVDGYDSSVR [KCNQ1_Y461]
Reply: 0.948

Task item: # lookup: SH2 binding enrichment of GLPINYTTRRI [LAMA2_Y2894]
Reply: 0.62

Task item: # lookup: SH2 binding enrichment of GIMEEYQLPYY [BMPR1A_Y453_V450M]
Reply: 0.845

Task item: # lookup: SH2 binding enrichment of VPLLEYYWDIF [CDAN1_Y712_R714W]
Reply: 1.54

Task item: # lookup: SH2 binding enrichment of KIMVIYDGACQ [VWDE_Y1035_T1032M]
Reply: 0.776

Task item: # lookup: SH2 binding enrichment of EPVSDYINANV [PTPN11_Y304_I309V]
Reply: 1.14

Task item: # lookup: SH2 binding enrichment of ESFRLYPPVPQ [CYP4B1_Y377]
Reply: 0.829

Task item: # lookup: SH2 binding enrichment of GRVFVYRLSEQ [ITGAE_Y551_YF]
Reply: 1.38

Task item: # lookup: SH2 binding enrichment of FETNVYVDKNL [PTCHD3_Y688_K685T]
Reply: 0.968

====

Test system: AncSZ
measurement.notes: phosphorylation enrichment, bacterial display (enrichment ratio); higher = better substrate or ligand; peptides without Tyr show the background
Tag: rule met if measured phosphorylation enrichment is not below 1, rule not met if it is.

The examples below pair each entry with its known result.
[[record]]
entry_sequence = "MASTSYDFCRV [BST2_Y6_YF]"
answer_label = "rule not met"

[[record]]
entry_sequence = "IPGGIYDADLN [CST4_Y35]"
answer_label = "rule met"

[[record]]
entry_sequence = "DPFHVYIKNRV [KCNE3_Y95_YF]"
answer_label = "rule met"


Task item: Decide: is the reported value of phosphorylation enrichment for DTVRIYDDDFF [UBA1_Y560_E557V] equal to or greater than 1?
Reply: rule met

Task item: Decide: is the reported value of phosphorylation enrichment for SGRRRYTIAAL [TTR_Y125_P122R] equal to or greater than 1?
Reply: rule not met

Task item: Decide: is the reported value of phosphorylation enrichment for RKGGSYSQAAS [HLA-A_Y344_T345S] equal to or greater than 1?
Reply: rule not met

Task item: Decide: is the reported value of phosphorylation enrichment for EPVSDYINANV [PTPN11_Y304_I309V] equal to or greater than 1?
Reply: rule met

Task item: Decide: is the reported value of phosphorylation enrichment for HTVVSYAEVRA [CLOCK_Y378] equal to or greater than 1?
Reply: rule met

Task item: Decide: is the reported value of phosphorylation enrichment for SCRSKYVGLWG [KCNQ1_Y184_G179S] equal to or greater than 1?
Reply: rule not met

Task item: Decide: is the reported value of phosphorylation enrichment for VPLLEYYWDIF [CDAN1_Y712_R714W] equal to or greater than 1?
Reply: rule met

Task item: Decide: is the reported value of phosphorylation enrichment for FSVDGYDSSVR [KCNQ1_Y461] equal to or greater than 1?
Reply: rule not met

Task item: Decide: is the reported value of phosphorylation enrichment for DLNATYRTIQG [U2SURP_Y634] equal to or greater than 1?
Reply: rule not met

Task item: Decide: is the reported value of phosphorylation enrichment for SRIWVYNHYRC [BRCA2_Y2621_W2626C] equal to or greater than 1?
Reply: rule not met

Task item: Decide: is the reported value of phosphorylation enrichment for QVKEQYQDVPM [PKP2_Y659_K654Q] equal to or greater than 1?
Reply: rule met
